B1: His6-SUMO-tagged SH3 to PDZ domains of Shank2 (R520-D727), WT [not stated (human or rat cDNA cloned)] / synthetic peptide of the complete PDZ ligand of GKAP (last 15 amino acids of GKAP/SAPAP1) [not stated] (parent complex)
chain 1: RKLYSAVPGRLFVAVKPYQPQVDGEIPLHRGDRVKVLSIGEGGFWEGSARGHIGWFPAECVEEVQCKPRDSQAETRADRSKKLFRHYTVGSYDSFDTSSDCIIEEKTVVLQKKDNEGFGFVLRGAKADTPIEEFTPTPAFPALQYLESVDEGGVAWQAGLRTGDFLIEVNNENVVKVGHRQVVNMIRQGGNHLVLKVVTVTRNLDPDD
chain 2: ADSIEIYIPEAQTRL

Variants of: B1
experiment-description: ITC; parent: 319 nM
observed-property: Kd (µM)
// units = µM; emit number, no label

In: Quick one: Kd for chain 1 G124R ?
Out: 22
